Numbers sourced from PubChem BioAssay AID248.

Test system: L1210 leukemia ip in BDF1 mice, survival T/C
Experiment: NCI In Vivo Anticancer Drug Screen. Data for tumor model L1210 Leukemia (intraperitoneal) in B6D2F1 (BDF1) mice
Conditions: endpoint: mean survival time; dose: 50.0 mg/kg/injection; schedule: Q01DX009 (ip); vehicle: saline; higher = longer survival
Inconclusive results and toxic doses are left out.
Answer each item with its documented T/C.

Query (compound): CC[N+](C)(CC)CC1CC(C)OC1=O (centres undefined) ; field requested: T/C
95 % of control

Query (compound): CNCC(C)CNC ; field requested: T/C
103 % of control

Query (compound): CCN1CC=CCC1 ; field requested: T/C
100 % of control

Query (compound): SC1(S)CC(c2ccc(Cl)cc2)NC(c2ccc(Cl)cc2)C1 (centres undefined) ; field requested: T/C
100 % of control

Query (compound): CCC[As](=O)(O)CCC ; field requested: T/C
112 % of control

Query (compound): NCCc1cnc[nH]1 ; field requested: T/C
89 % of control

Query (compound): C=CCC(N)Cc1ccccc1 (centres undefined) ; field requested: T/C
109 % of control

Query (compound): CC(CC1c2ccccc2CCc2ccccc21)CN(C)C (centres undefined) ; field requested: T/C
101 % of control

Query (compound): S=C(NCc1ccccc1)NC1CCCCC1 ; field requested: T/C
100 % of control

Query (compound): CCN(CC)CCOC(=O)c1ccccc1N(c1ccccc1)c1ccccc1 ; field requested: T/C
98 % of control

Query (compound): CCCCCCCCCCCCCCCCCC1=NCCN1CCN ; field requested: T/C
97 % of control

Query (compound): C[P+]1(C)CC2OC23CCCCC31 (centres undefined) ; field requested: T/C
94 % of control

Query (compound): Cc1ccc2scc3c4ccccc4nc-3c2c1 ; field requested: T/C
95 % of control

Query (compound): CCN(CC)Cc1c(C)[nH]c2ccc(N(C)C)cc2c1=O ; field requested: T/C
101 % of control

Query (compound): Cc1n(Cc2ccccc2)cc[n+]1C ; field requested: T/C
93 % of control

Query (compound): CCOC(OCC)c1nc(N)c2cnn(C)c2n1 ; field requested: T/C
94 % of control

Query (compound): COc1ccc(C2(O)c3ccccc3-c3ccccc32)cc1 ; field requested: T/C
93 % of control

Query (compound): Cc1cc(C(C)(C)c2ccc(O)c(C)c2)ccc1O ; field requested: T/C
97 % of control

Query (compound): O=C(NCCCN1CCN(CCCNC(=O)c2cccnc2)CC1)c1cccnc1 ; field requested: T/C
101 % of control

* * *

Test system: L1210 leukemia ip in BDF1 mice, survival T/C
Assay: NCI In Vivo Anticancer Drug Screen. Data for tumor model L1210 Leukemia (intraperitoneal) in B6D2F1 (BDF1) mice
Conditions: endpoint: mean survival time; dose: 75.0 mg/kg/injection; schedule: Q01DX009 (ip); vehicle: Klucel (hydroxypropylcellulose) (HPC); higher = longer survival
Toxic doses and inconclusive results are not listed.
ENDPOINT: T/C

Query (compound): C=CCOc1ccnc(SC)n1 ; field requested: T/C
98 % of control

Query (compound): C=C1c2c(Cl)cccc2C(C)(CC)c2cccc(Cl)c21 ; field requested: T/C
94 % of control

Query (compound): COc1ccc(C(C)(C)CC(C)(C)C)cc1 ; field requested: T/C
111 % of control

Query (compound): Cc1cccc2c1ccc1cc(C(C)C)ccc12 ; field requested: T/C
106 % of control
